compounds and their reported T/C
- Test system: P388 leukemia ip, CD2F1 mice, survival T/C
- EXPERIMENTAL DETAILS: NCI In Vivo Anticancer Drug Screen. Data for tumor model P388 Leukemia (intraperitoneal) in CD2F1 (CDF1) mice
- CONDITION SET: endpoint: median survival time; dose: 12.5 mg/kg/injection; schedule: Q01DX009 (ip); vehicle: other; higher = longer survival
Inconclusive results and toxic doses are left out.

Before answering, review these 3 worked examples.
# COMPOUND, MEASUREMENT
records = [
    ("CC1(OC(=O)c2ccc(Cl)cc2)CC(C)(C)[N+]([O-])=N1 (centres undefined)", "103 % of control"),
    ("Cc1ccc(S(=O)(=O)Nc2nnc(NS(=O)(=O)c3ccc(C)cc3)nn2)cc1", "96 % of control"),
    ("COC1OC2COC(c3ccccc3)OC2C(OC(C)=O)C1OC(C)=O (centres undefined)", "98 % of control"),
]

Proceeding to the next compound to report its T/C.
Input: Sample Cc1ccc(S(=O)(=O)N/N=C\c2cccnc2)cc1 — what was its T/C?
Output: 105 % of control
